I'd appreciate it if you could supply pIC50 values for the items below.
molecular target: K-Ras G13C (Homo sapiens (Human), UniProt P01116+P62937, G13C); experiment: Ras-Raf (BRAF RBD) disruption / FRET / MOA assay, KRAS G13C; type: biochemical; settings: KRAS G13C; Ras-Raf disruption/FRET/MOA assay; read-out: IC50* KRAS G13C FRET data
Sequence (P01116-2 other isoform, or with tags, fused parts or gaps G13C): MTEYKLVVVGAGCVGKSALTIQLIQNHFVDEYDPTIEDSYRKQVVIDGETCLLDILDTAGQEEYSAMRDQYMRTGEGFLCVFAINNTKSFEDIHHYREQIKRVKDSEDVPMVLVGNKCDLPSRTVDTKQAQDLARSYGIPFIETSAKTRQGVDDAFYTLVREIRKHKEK
Sequence (P62937 whole entry): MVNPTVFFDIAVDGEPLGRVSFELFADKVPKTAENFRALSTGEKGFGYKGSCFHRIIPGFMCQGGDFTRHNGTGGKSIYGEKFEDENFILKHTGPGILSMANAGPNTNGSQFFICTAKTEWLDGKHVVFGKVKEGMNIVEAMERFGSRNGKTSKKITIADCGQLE
pIC50: −log10 of the molar value.

Consider the molecule shown here: C=CC(=O)N1C[C@@H](C)[C@H](N(C)C(=O)N(C)[C@H](C(=O)N[C@H]2Cc3nc(cs3)-c3ccc4c(c3)c(c(-c3cccnc3[C@H](C)OC)n4CC)CC(C)(C)COC(=O)[C@@H]3CCCN(N3)C2=O)C(C)C)C1 (atropisomer, axis not shown) What is its recorded pIC50?
5.00 to 6.00

Consider the molecule shown here: CO[C@@H](C)c1ncccc1-c1c2c3cc(ccc3n1CC(F)(F)F)-c1nc(ns1)C[C@H](NC(=O)[C@@H](COC1CN(C(=O)C#CC(C)(C)N(C)C)C1)C(C)C)C(=O)N1CCC[C@H](N1)C(=O)OCC(C)(C)C2 (atropisomer, axis not shown) What is its recorded pIC50?
5.00 to 6.00

Consider the molecule shown here: CCn1c(-c2cccnc2[C@H](C)OC)c2c3cc(ccc31)-c1csc(n1)C[C@H](NC(=O)[C@H](C(C)C)N(C)C(=O)N1CCC3(CC1)CN(C(=O)/C=C/CN(C)C)C3)C(=O)N1CCC[C@H](N1)C(=O)OCC(C)(C)C2 (atropisomer, axis not shown) What is its recorded pIC50?
7.00 to 8.00

Consider the molecule shown here: `CC#CC(=O)N1CC[C@@H](C(=O)N(C)[C@H](C(=O)N[C@H]2Cc3cc(O)cc(c3)-c3ccc4c(c3)c(c(-c3cncnc3)n4CC)CC(C)(C)COC(=O)[C@@H]3CCCN(N3)C2=O)C(C)C)C1` What is its recorded pIC50?
5.00 to 6.00

Consider the molecule shown here: C=CC(=O)NCCN(C)C(=O)N(C)[C@H](C(=O)N[C@H]1Cc2nc(cs2)-c2ccc3c(c2)c(c(-c2cccnc2[C@H](C)OC)n3CC)CC(C)(C)COC(=O)[C@@H]2CCCN(N2)C1=O)C(C)C (atropisomer, axis not shown) What is its recorded pIC50?
7.00 to 8.00

Consider the molecule shown here: CO[C@@H](C)c1ncccc1-c1c2c3cc(ccc3n1CC(F)(F)F)-c1cccc(c1)C[C@H](NC(=O)[C@H](C(C)C)N(C)C(=O)[C@H]1CCN(C(=O)C#CC(C)(C)N(C)C)C1)C(=O)N1CCC[C@H](N1)C(=O)OCC(C)(C)C2 (atropisomer, axis not shown) What is its recorded pIC50?
6.00 to 7.00

Consider the molecule shown here: CCn1c(-c2cccnc2COC)c2c3cc(ccc31)-c1cc(C)cc(c1)C[C@H](NC(=O)[C@H](C(C)C)N(C)C(=O)[C@H]1CCN(C(=O)C#CCN(C)C)C1)C(=O)N1CCC[C@H](N1)C(=O)OCC(C)(C)C2 [Example A157] What is its recorded pIC50?
6.00 to 7.00

Consider the molecule shown here: C=CC(=O)NC[C@@H]1CCN1C(=O)N(C)[C@H](C(=O)N[C@H]1Cc2nc(cs2)-c2ccc3c(c2)c(c(-c2cccnc2[C@H](C)OC)n3CC)CC(C)(C)COC(=O)[C@@H]2CCCN(N2)C1=O)C(C)C (atropisomer, axis not shown) What is its recorded pIC50?
6.00 to 7.00

###

I'd appreciate it if you could supply IC50 values for the items below.
molecular target: KRAS G12D (Homo sapiens (Human), UniProt P01116+P62937, G12D); test: Ras-Raf (BRAF RBD) disruption / FRET / MOA assay, KRAS G12D; format: biochemical; settings: Ras-Raf disruption/FRET/MOA assay; class symbols; read-out: KRAS G12D FRET data IC50
Sequence (P01116-2 other isoform, or with tags, fused parts or gaps G12D): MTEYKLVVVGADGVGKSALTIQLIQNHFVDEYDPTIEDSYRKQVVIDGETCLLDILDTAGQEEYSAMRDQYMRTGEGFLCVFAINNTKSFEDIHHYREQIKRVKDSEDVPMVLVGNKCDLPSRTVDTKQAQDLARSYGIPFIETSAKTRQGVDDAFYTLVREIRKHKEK
Sequence (P62937 whole entry): as the sequence (P62937 whole entry) above

Consider the molecule shown here: C=CC(=O)N1CC2(CCN(C(=O)N(C)[C@H](C(=O)N[C@H]3Cc4nc(cs4)-c4ccc5c(c4)c(c(-c4cccnc4[C@H](C)OC)n5CC)CC(C)(C)COC(=O)[C@@H]4CCCN(N4)C3=O)C(C)C)CC2)C1 (atropisomer, axis not shown) What is its recorded IC50?
0.1 to 1 µM

Consider the molecule shown here: C=CC(=O)N1CCC(F)(C(=O)N(C)[C@H](C(=O)N[C@H]2Cc3nc(cs3)-c3ccc4c(c3)c(c(-c3cccnc3[C@H](C)OC)n4CC)CC(C)(C)COC(=O)[C@@H]3CCCN(N3)C2=O)C(C)C)CC1 (atropisomer, axis not shown) What is its recorded IC50?
0.1 to 1 µM

Consider the molecule shown here: C=CC(=O)N1CCC2(CCN(C(=O)N(C)[C@H](C(=O)N[C@H]3Cc4nc(cs4)-c4ccc5c(c4)c(c(-c4cccnc4[C@H](C)OC)n5CC)CC(C)(C)COC(=O)[C@@H]4CCCN(N4)C3=O)C(C)C)CC2)C1 (atropisomer, axis not shown) What is its recorded IC50?
0.1 to 1 µM

Consider the molecule shown here: C=CC(=O)Nc1ccc(C(=O)N(C)[C@H](C(=O)N[C@H]2Cc3cc(O)cc(c3)-c3ccc4c(c3)c(c(-c3cccnc3[C@H](C)OC)n4CC)CC(C)(C)COC(=O)[C@@H]3CCCN(N3)C2=O)C(C)C)cn1 (atropisomer, axis not shown) What is its recorded IC50?
1 to 10 µM

Consider the molecule shown here: `C=CC(=O)N1CC[C@H](C(=O)N(C)[C@H](C(=O)N[C@H]2Cc3cc(O)cc(c3)-c3ccc4c(c3)c(c(-c3cncc(COC)c3)n4CC)CC(C)(C)COC(=O)[C@@H]3CCCN(N3)C2=O)C(C)C)C1` What is its recorded IC50?
> 10 µM

Consider the molecule shown here: C=CC(=O)N1CC[C@H](C(=O)N(C)[C@H](C(=O)N[C@H]2Cc3cccc(c3F)-c3ccc4c(c3)c(c(-c3cccnc3[C@H](C)OC)n4CC)CC(C)(C)COC(=O)[C@@H]3CCCN(N3)C2=O)C(C)C)C1 (atropisomer, axis not shown) What is its recorded IC50?
> 10 µM

Consider the molecule shown here: CCn1c(-c2cccnc2[C@H](C)OC)c2c3cc(ccc31)-c1csc(n1)C[C@H](NC(=O)CCOC1CN(C(=O)C#CC(C)(C)N3CCC3)C1)C(=O)N1CCC[C@H](N1)C(=O)OCC(C)(C)C2 (atropisomer, axis not shown) What is its recorded IC50?
> 10 µM

Consider the molecule shown here: C=CC(=O)N1C[C@H](C)N(C(=O)N(C)[C@H](C(=O)N[C@H]2Cc3nc(cs3)-c3ccc4c(c3)c(c(-c3cccnc3[C@H](C)OC)n4CC)CC(C)(C)COC(=O)[C@@H]3CCCN(N3)C2=O)C(C)C)C[C@@H]1C (atropisomer, axis not shown) What is its recorded IC50?
0.1 to 1 µM

Consider the molecule shown here: `CCn1c(-c2cncnc2)c2c3cc(ccc31)-c1cc(O)cc(c1)C[C@H](NC(=O)[C@H](C(C)C)N(C)C(=O)[C@H]1CCN(C(=O)C#CCN3CCOCC3)C1)C(=O)N1CCC[C@H](N1)C(=O)OCC(C)(C)C2` What is its recorded IC50?
> 10 µM

Consider the molecule shown here: CCn1c(-c2cccnc2[C@H](C)OC)c2c3cc(ccc31)-c1cc(cc(C(F)F)c1)C[C@H](NC(=O)[C@H](C(C)C)N(C)C(=O)[C@H]1CCN(C(=O)C#CC(C)(C)N3CCC3)C1)C(=O)N1CCC[C@H](N1)C(=O)OCC(C)(C)C2 (atropisomer, axis not shown) What is its recorded IC50?
> 10 µM

Consider the molecule shown here: C=CC(=O)N1CCO[C@H]2CN(C(=O)N(C)[C@H](C(=O)N[C@H]3Cc4nc(n(C)n4)-c4ccc5c(c4)c(c(-c4cccnc4[C@H](C)OC)n5CC(F)(F)F)CC(C)(C)COC(=O)[C@@H]4CCCN(N4)C3=O)C(C)C)C[C@H]21 (atropisomer, axis not shown) What is its recorded IC50?
1 to 10 µM

Consider the molecule shown here: `CCn1c(-c2cccnc2[C@H](C)OC)c2c3cc(ccc31)-c1cc(O)cc(c1)C[C@H](NC(=O)[C@H](C(C)C)N(C)C(=O)c1ncc(NC(=O)/C=C/CN(C)C)n1C)C(=O)N1CCC[C@H](N1)C(=O)OCC(C)(C)C2` What is its recorded IC50?
0.1 to 1 µM

Consider the molecule shown here: CCn1c(-c2cccnc2[C@H](C)OC)c2c3cc(ccc31)N1CCO[C@@H](C[C@H](NC(=O)[C@H](C(C)C)N(C)C(=O)[C@@]3(F)CCC(C(=O)C#CC(C)(C)N4CCC4)C3)C(=O)N3CCC[C@H](N3)C(=O)OCC(C)(C)C2)C1 (stereo partly drawn) What is its recorded IC50?
> 10 µM

Consider the molecule shown here: C=CC(=O)N1CC[C@H](C(=O)N(C)[C@H](C(=O)N[C@H]2Cc3cccc(c3)-c3ccc4c(c3)c(c(-c3cnccc3[C@H](C)OC)n4CC)CC(C)(C)COC(=O)[C@@H]3CCCN(N3)C2=O)C(C)C)C1 [Example A122] What is its recorded IC50?
> 10 µM

Consider the molecule shown here: `CCn1c(-c2cnccc2COC)c2c3cc(ccc31)-c1cncc(c1)C[C@H](NC(=O)[C@H](C(C)C)N(C)C(=O)[C@H]1CCN(C(=O)C#CCN(C)C)C1)C(=O)N1CCC[C@H](N1)C(=O)OCC(C)(C)C2` What is its recorded IC50?
1 to 10 µM

Reference for the values: patent US11566007B2
